// provenance: the Human Domainome abundance scans (Beltran et al. 2025)

B1: Far upstream element-binding protein 3, residues 75 to 150; numbered along this chain, Q96I24 (parent)
chain: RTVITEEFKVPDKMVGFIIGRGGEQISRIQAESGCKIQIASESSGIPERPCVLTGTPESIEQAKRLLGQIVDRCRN

variants of: B1; assay: abundance fitness (aPCA) (normalised: wild type 0, dead -1); higher = more abundant; growth selection in yeast, the domain comes from the species named; details: Homo sapiens
Quantity: abundance fitness

[[record]]
sequence_code = "RTVITEEFKVPDKMVGFIIGRGGEQISRIQAESGCKIQIASESSGIPERPCSLTGTPESIEQAKRLLGQIVDRCRN [V52S]"
quantity = "abundance fitness"
obs_value = -0.005

[[record]]
sequence_code = "RTVITEEFKVPDKMVGFIIGRGGEQISRIQAESGCKIQIASESSGIPERPCVLTGTPESIEAAKRLLGQIVDRCRN [Q62A]"
quantity = "abundance fitness"
obs_value = -0.01

[[record]]
sequence_code = "RTVITEEFKVPDKMVGFIIQRGGEQISRIQAESGCKIQIASESSGIPERPCVLTGTPESIEQAKRLLGQIVDRCRN [G20Q]"
quantity = "abundance fitness"
obs_value = -0.116

[[record]]
sequence_code = "RTVITEEFKVPDKMVGFIIGRGGEQISRIQAESGCKIQIASESSGIPERPCVLTGTEESIEQAKRLLGQIVDRCRN [P57E]"
quantity = "abundance fitness"
obs_value = -0.045

[[record]]
sequence_code = "RTVITEEFKVPDKMVGFIIGRGGEQISRIQAESGCKIQIASESSGIPERPCVLTGTPESQEQAKRLLGQIVDRCRN [I60Q]"
quantity = "abundance fitness"
obs_value = -0.806

[[record]]
sequence_code = "RTLITEEFKVPDKMVGFIIGRGGEQISRIQAESGCKIQIASESSGIPERPCVLTGTPESIEQAKRLLGQIVDRCRN [V3L]"
quantity = "abundance fitness"
obs_value = -0.007

[[record]]
sequence_code = "RTVITEEFKVPDKMVGFIIGRGGEQISRIQAESGCKIQIASESSGIPERPCVLTGTPESIEQAKRLLGQIVDRCAN [R75A]"
quantity = "abundance fitness"
obs_value = 0.064

[[record]]
sequence_code = "RTVITEEFKVPDKMVGFIIGRGGEQISRIQAESGCKIQIASESSGIPFRPCVLTGTPESIEQAKRLLGQIVDRCRN [E48F]"
quantity = "abundance fitness"
obs_value = -0.09

[[record]]
sequence_code = "RTVITEEFKVPDKMVGFIIGRGGEQISRIQYESGCKIQIASESSGIPERPCVLTGTPESIEQAKRLLGQIVDRCRN [A31Y]"
quantity = "abundance fitness"
obs_value = -0.076

[[record]]
sequence_code = "RTVITEEFKVPDKMVGFIIGRGGEQISRIQAESGCKIQIASESSGIPERPCVLTGTPESIEQAKRLLGQPVDRCRN [I70P]"
quantity = "abundance fitness"
obs_value = -0.335

[[record]]
sequence_code = "RTVITEEFKVPDKMVGFIIGRGGEQISRIQAESGCKIVIASESSGIPERPCVLTGTPESIEQAKRLLGQIVDRCRN [Q38V]"
quantity = "abundance fitness"
obs_value = -0.007

[[record]]
sequence_code = "RTVITEEFKVPDKMVGFIIGRGGEQISRIQAESGCKIQIASESSGIPERPCVLSGTPESIEQAKRLLGQIVDRCRN [T54S]"
quantity = "abundance fitness"
obs_value = -0.078

[[record]]
sequence_code = "RTVITEEFKVPDKMVGFIIGRGGEQISRIQAESGCKIQIASESSGIPERPCVLTGTPESIEQSKRLLGQIVDRCRN [A63S]"
quantity = "abundance fitness"
obs_value = -0.401

